The values you see were collected from patent US20260200919A1.

- experimental system: human recombinant kinase full-length AKT1 E17K (Homo sapiens, UniProt P31749, E17K)
- Construct: Purified human recombinant kinase full-length AKT1 E17K was expressed in insect cells
- Sequence (P31749 whole entry E17K): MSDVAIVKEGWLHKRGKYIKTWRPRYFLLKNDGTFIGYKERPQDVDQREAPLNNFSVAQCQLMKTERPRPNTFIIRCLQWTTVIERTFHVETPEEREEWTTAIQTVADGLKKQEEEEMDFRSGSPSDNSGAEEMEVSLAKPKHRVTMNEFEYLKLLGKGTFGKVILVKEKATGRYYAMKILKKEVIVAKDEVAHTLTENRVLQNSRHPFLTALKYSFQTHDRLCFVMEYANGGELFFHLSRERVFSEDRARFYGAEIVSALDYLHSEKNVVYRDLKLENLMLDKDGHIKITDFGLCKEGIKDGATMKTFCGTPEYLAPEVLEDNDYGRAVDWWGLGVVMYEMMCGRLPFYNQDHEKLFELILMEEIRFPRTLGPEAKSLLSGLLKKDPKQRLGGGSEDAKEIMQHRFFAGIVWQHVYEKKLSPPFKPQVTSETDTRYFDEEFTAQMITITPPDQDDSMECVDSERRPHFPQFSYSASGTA
- test details: AKT1 E17K kinase assay (TR-FRET, Lance)
- applied conditions: 0.6 nM AKT1 E17K, 50 nM Ulight-CREBtide, either 50 μM ATP or 2 mM ATP (not specified which), 60 min at RT
property label: IC50

Would you please look over these solved cases?
>>> print(df.to_string())
                                   compound                       experimental_system  observed_value
0  CC(C)(C)c1ccc2nc(-c3cccnc3N)n(-c3ccc(NC(=O)c4ccc(C(=O)O)cc4)nc3)c2c1  human recombinant kinase full-length AKT1 E17K (Homo sapiens, UniProt P31749, E17K)        > 500 nM
1  CC(c1ccc(C(=O)O)cc1)N1CCC(c2ccc(-n3c(-c4cccnc4N)nc4ccc(-c5ccccc5)nc43)cc2)C1 (stereo not drawn)  human recombinant kinase full-length AKT1 E17K (Homo sapiens, UniProt P31749, E17K)   200 to 500 nM
2  CC(=O)Nc1ccc(-c2cnc3c(c2)nc(-c2cccnc2N)n3-c2ccc(CNC(=O)c3cccc(CC(=O)O)c3)cc2)cc1  human recombinant kinase full-length AKT1 E17K (Homo sapiens, UniProt P31749, E17K)    50 to 200 nM
3  Nc1ncccc1-c1nc2ccc(-c3ccccc3)nc2n1-c1ccc(CNC(=O)c2cc(F)cc(C(=O)O)c2)cc1  human recombinant kinase full-length AKT1 E17K (Homo sapiens, UniProt P31749, E17K)         < 50 nM
4  Nc1ncccc1-c1nc2ccc(-c3ccccc3)nc2n1-c1ccc(NC(=O)c2cccc(C(=O)O)c2)cc1  human recombinant kinase full-length AKT1 E17K (Homo sapiens, UniProt P31749, E17K)         < 50 nM
5  CC(C)c1ccc2nc(-c3cccnc3N)n(-c3ccc(NC(=O)c4ccc(C(=O)O)cc4)nc3)c2c1  human recombinant kinase full-length AKT1 E17K (Homo sapiens, UniProt P31749, E17K)        > 500 nM

// IC50 lookup, key: COc1ccc2nc(-c3cccnc3N)n(-c3ccc(CNC(=O)c4cccc(C(=O)O)c4F)cc3)c2c1 > 500 nM

Entry Nc1ncccc1-c1nc2ccc(-c3ccc(F)cc3)nc2n1-c1ccc(NC(=O)c2ccc(C(=O)O)cc2)nc1 has what IC50? 50 to 200 nM

Any idea what IC50 was measured for Nc1ncccc1-c1nc2ccc(-c3ccccc3)nc2n1-c1ccc(CNC(=O)c2cccc(CC(=O)O)c2)cn1 ? > 500 nM

Which IC50 value belongs to Nc1ncccc1-c1nc2ccc(-c3ccccc3)nc2n1-c1ccc(C2CN(Cc3ccc(C(=O)O)cc3)C2)nc1 ? > 500 nM
